Target: TDP-43 (Homo sapiens, UniProt Q13148 1-414)
Sequence (Q13148 whole entry): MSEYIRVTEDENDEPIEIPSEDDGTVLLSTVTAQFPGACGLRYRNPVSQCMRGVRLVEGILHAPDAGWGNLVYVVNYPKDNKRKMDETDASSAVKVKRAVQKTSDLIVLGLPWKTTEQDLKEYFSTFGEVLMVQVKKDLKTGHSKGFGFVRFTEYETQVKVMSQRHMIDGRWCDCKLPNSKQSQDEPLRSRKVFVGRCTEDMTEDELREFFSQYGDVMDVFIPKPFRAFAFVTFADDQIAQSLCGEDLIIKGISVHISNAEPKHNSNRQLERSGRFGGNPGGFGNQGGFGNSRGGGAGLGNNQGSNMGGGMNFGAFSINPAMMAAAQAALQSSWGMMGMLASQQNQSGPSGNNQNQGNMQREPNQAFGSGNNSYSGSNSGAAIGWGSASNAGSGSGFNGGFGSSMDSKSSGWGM
Assay: RNA Bind-n-Seq with designed 260-mer pool; 25 mM Tris-HCl, 150 mM KCl, 3 mM MgCl2, BSA (printed 500 mg/mL), 20 units/mL SUPERase IN; pH not stated; 500 nM RNA pool, 1 h, 4 C; TDP-43 5, 50, 500 nM; high values mean tight binding
Conditions: protein: recombinant; tags: SBP (GST cleaved off with PreScission; pGEX-GST-SBP)
Whole data set: some 9,900 sequences, median “r (bound/input frequency ratio)” near 0.7, cut for the highest 2% near 6.5. This excerpt belongs to a sample that is enriched for the highest values.
So I've got a bunch of binders here, and I need their binding signal values.

Data request, read-out binding signal, for ENSMUSG00000058297.34|Spock2|47:51;55:68;77:88;102:108;117:126;132:157 (ssRNA) RNA: GGGAGUUCUACAGUCCGACGAUCGCUUCGAUAUCCGCAUGCUAGAAGUCAGUGCGGAGGACCCUGGCUCCAGUGGGGGAGGACUGGGGACACACGCUACACACAUACACACAUAUGAGAACACACACAUACAUGUGAGAUGUGACACACACAUGUGAGAACACACAUACUGAGAACACACACACACACACACACACACACAUGUGAGUCACCCAAAGGUCCCUAUGUUAUUGAUUUUCAAAUGCACACUUUCACACACAAGGAUACACUAACAGACCAAAAUCAAUGAGAUGUCCCUGAUCCUCUCUUGCGGUCGCACUAGUGUGGAAUUCUCGGGUGUCAAGG
2.69 R (bound/input frequency ratio)

I'd like to know its binding signal. The binder in question is ENSMUSG00000028439.144|Fam219a (ssRNA) RNA: GGGAGUUCUACAGUCCGACGAUCGCUUCGAUAUCCGCAUGCUACCCAGUCUUCUGUCUAUUGGUUCCAGGCUGGAAGCAAGAGAUAAGGCUGGCCUCCUGUGCCCCAUUGCCAUUUCACCCUAGCUCAAAGUCCAGGAGCCAGGCUUCCAGAAAGGCUCUUCAAGAGCAAGCUUAAGGAAAUACAGUGAGCCAAGUGGCUGUAUGAUAUGGUAUGGUAUGGUAUGGUAUGGUAUGGUAUGGUAUGCACAUGUGUGUGCAUGUGUGUGUGCCUGUGUGUGUGCGUGUGCGUGUGUGUAUGUGUGCUCUUGCGGUCGCACUAGUGUGGAAUUCUCGGGUGUCAAGG
6.06 R (bound/input frequency ratio)

Request the reported binding signal associated with ENSMUSG00000058297.33|Spock2 (ssRNA) RNA: GGGAGUUCUACAGUCCGACGAUCGCUUCGAUAUCCGCAUGCUAGAUCCGGAAGUCAGUGCGGAGGACCCUGGCUCCAGUGGGGGAGGACUGGGGAGUGUGGCUUGUGUGUAUGUGUGAUAUGAGAUGUGUGUGUAUGAUGUGAGAUGUGAGUGUGUGAUGUGAGAUGUGUGUAUGUGAGAUGUGUGUGUGUGUGUGUGUGUGUGUGAUGUGAGUCACCCAAAGGUCCCUAUGUUAUUGAUUUUCAAAUGCACACUUUCACACACAAGGAUACACUAACAGACCAAAAUCAAUGAGAUGUCCCUCUCUUGCGGUCGCACUAGUGUGGAAUUCUCGGGUGUCAAGG
8.02 R (bound/input frequency ratio)

For the binder shown here, ENSMUSG00000058297.33|Spock2|53:57;61:74;83:94;108:114;123:132;138:163 (ssRNA) RNA: GGGAGUUCUACAGUCCGACGAUCGCUUCGAUAUCCGCAUGCUAGAUCCGGAAGUCAGUGCGGAGGACCCUGGCUCCAGUGGGGGAGGACUGGGGACACACGCUACACACAUACACACAUAUGAGAACACACACAUACAUGUGAGAUGUGACACACACAUGUGAGAACACACAUACUGAGAACACACACACACACACACACACACACAUGUGAGUCACCCAAAGGUCCCUAUGUUAUUGAUUUUCAAAUGCACACUUUCACACACAAGGAUACACUAACAGACCAAAAUCAAUGAGAUGUCCCUCUCUUGCGGUCGCACUAGUGUGGAAUUCUCGGGUGUCAAGG , give the reported binding signal.
2.93 R (bound/input frequency ratio)
